Source of measurements: patent US6555356B2

The molecules listed here are annotated with their Minimum inhibitory concentration, Swarming.
- Test system: strain V54
- test-summary: Marine isolate swarming, strain V54
- Assay type: cell-based
Write the value in µg/mL as a bare number.

Worked set:
CCCCC1=C(Br)C(=C(Br)Br)OC1=O [Compound 1]; 25
CCCC(O)C1=C(Br)C(=CBr)OC1=O (stereo not shown) [Compound 4]; 5
CCCCC1=C(Br)C(=CBr)OC1=O [Compound 2]; 5

Let's switch to this molecule now.
Query block: Please list Minimum inhibitory concentration, Swarming recorded for the molecule CCCC(OC(C)=O)C1=C(Br)C(=CBr)OC1=O (stereo not shown) [Compound 3]
Result block: 5
